Data credit: patent US20210221899A1

Target: T1, human NGF (human, UniProt P01138 122-241)
T1 construct: also called human Nerve Growth Factor; hN
T1 chain: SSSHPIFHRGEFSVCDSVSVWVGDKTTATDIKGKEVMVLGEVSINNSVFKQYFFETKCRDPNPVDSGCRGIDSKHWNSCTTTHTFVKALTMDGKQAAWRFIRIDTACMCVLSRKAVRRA
Assay: SPR (Biacore), human NGF amine-coupled on chip, antibody injected
pKd: −log10 of the molar value.
Lab note: anything with pKd at or over 9 counts as satisfied; the rest go in not satisfied.

- binder: "humanized mAb can9L12VH_X92218 / can9L12VL (antibody, V domains shown) VH: EVQLVESGGGLVQPGGSLRLSCAASGFTFSSHGMSWVRQAPGKGLEWVSVINSGGSSTYYADSVKGRFTISRDNSKNTLYLQMNSLRAEDTAVYYCAKESVGGWEQLVGPHFDYWGQGTLVIVSS VL: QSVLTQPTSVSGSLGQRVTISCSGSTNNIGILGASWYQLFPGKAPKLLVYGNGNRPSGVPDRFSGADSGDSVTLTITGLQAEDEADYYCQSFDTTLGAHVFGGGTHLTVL"
  assigned.label: "satisfied"
- binder: "humanized mAb can9L12VH_HM855939 / can9L12VL (antibody, V domains shown) VH: QVQLVESGGGVVQPGGSLRLSCAASGFTFSSHGMHWVRQAPGKGLEWVSVINSGGSSTYYADSVKGRFTISRDNSKNTLYLQMNSLRAEDTAVYYCAKESVGGWEQLVGPHFDYWGQGTLVIVSS VL: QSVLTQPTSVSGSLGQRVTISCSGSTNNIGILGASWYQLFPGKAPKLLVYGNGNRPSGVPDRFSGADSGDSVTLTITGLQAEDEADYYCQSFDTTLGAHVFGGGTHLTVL"
  assigned.label: "not satisfied"

Please find the next binder below.
Entry humanized mAb can9L12VH / can9L12VL_M94116_65698 (antibody, V domains shown) VH: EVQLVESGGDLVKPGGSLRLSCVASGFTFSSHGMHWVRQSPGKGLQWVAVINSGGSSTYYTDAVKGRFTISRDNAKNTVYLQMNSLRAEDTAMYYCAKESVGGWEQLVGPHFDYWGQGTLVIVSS VL: QSVLTQPTSVSGAPGQRVTISCTGSTNNIGILGVHWYQQLPGTAPKLLIYGNGNRPSGVPDRFSGADSGDSVSLAITGLQAEDEADYYCQSFDTTLGAHVFGGGTHLTVL : is its pKd no less than 9? not satisfied
